# SYSTEM: Des1 (Homo sapiens (Human), UniProt O15121)
# Sequence (O15121 whole entry): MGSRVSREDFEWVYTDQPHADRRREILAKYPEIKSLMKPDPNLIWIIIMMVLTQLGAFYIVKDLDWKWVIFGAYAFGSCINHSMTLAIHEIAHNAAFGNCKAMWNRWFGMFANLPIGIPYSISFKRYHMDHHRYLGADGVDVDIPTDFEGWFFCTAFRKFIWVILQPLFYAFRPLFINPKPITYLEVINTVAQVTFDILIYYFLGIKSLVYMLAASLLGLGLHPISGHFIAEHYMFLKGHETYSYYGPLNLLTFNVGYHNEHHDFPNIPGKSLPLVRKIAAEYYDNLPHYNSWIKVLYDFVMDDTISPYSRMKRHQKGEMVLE
# ASSAY PROCEDURE: Jurkat T cell measurement of conversion of dihydroceramide to ceramide
# Assay type: cell-based
# CONDITION SUMMARY: 0.5 μM compound, Jurkat clone E6-1 cells; read-out: Des1 % Inhib (0.5 μM)
QUANTITY: inhibition at 0.5 µM (%)
Express your answer in %, writing the number without its unit.

The cases that follow already have their inhibition at 0.5 µM on record.
>>> df
                                   compound              quantity  measured_value
0    O=C(Nc1ccc(O)cn1)C1CCN(c2ccc(F)cc2)CC1  inhibition at 0.5 µM            96.6
1  O=C(Nc1ccc(O)cn1)C1CCCN(c2ccc(F)cc2)C1 (stereo not shown)  inhibition at 0.5 µM            91.3
2       CC(C)(C)c1ccc(C(=O)Nc2ccc(O)cn2)cc1  inhibition at 0.5 µM              90
3                 O=C(Nc1ccc(O)cn1)C1CCCCC1  inhibition at 0.5 µM            49.5
4  O=C(CC1CCN(c2ccc(C(F)(F)F)cc2)CC1)Nc1ccc(O)cn1  inhibition at 0.5 µM            96.2

What the record says about `O=C(Nc1ccc(O)cn1)c1ccc(-c2ccc(O)cc2)cc1` : inhibition at 0.5 µM is 62.8

What the record says about `CC(C)O[C@H]1CC[C@H](C(=O)Nc2ccc(O)cn2)CC1` : inhibition at 0.5 µM is 92.6

###

# SYSTEM: Des1 (Homo sapiens (Human), UniProt O15121)
# ASSAY PROCEDURE: Jurkat T cell measurement of conversion of dihydroceramide to ceramide
# Type: cell-based
# CONDITION SUMMARY: Jurkat clone E6-1 cells, NBD-C6-dihydroceramide substrate; read-out: Des1 IC50
pIC50 values by entry
pIC50 (log units): -log10 of the concentration in mol/L.

What the record says about O=C(Nc1ccc(O)cc1)c1cccc2ccccc12 [Example 13, N-(4-hydroxy-phenyl)-1-napthamide] : pIC50 is 5.09

What the record says about `O=C(Nc1ccc(O)cn1)[C@@H]1C[C@H]1c1ccccc1` : pIC50 is 6.64

What the record says about `COc1ccc(-c2ccc(C(=O)Nc3ccc(O)cn3)cc2)cc1` : pIC50 is 7.85

What the record says about `O=C(Nc1ccc(O)cn1)c1ccc(C(F)(F)F)cc1` : pIC50 is 7.20

What the record says about `O=C(Nc1ccc(O)cn1)C1CCN(c2ccc(F)cc2)CC1` : pIC50 is 7.96

###

# SYSTEM: Des1 (Homo sapiens (Human))
# ASSAY PROCEDURE: Jurkat T cell measurement of conversion of dihydroceramide to ceramide
# Assay type: cell-based
# CONDITION SUMMARY: Jurkat clone E6-1 cells, NBD-C6-dihydroceramide substrate; read-out: Des1 IC50
# From the text: Jurkat T Cell Measurement of Conversion of Dihydroceramide to Ceramide […]
pIC50: −log10 of the molar value.
# if value of pIC50 reaches 8, tag 1; if it stays below, tag 0

Solved cases below.
>>> print(df.to_string())
                                   compound  group_label
0  CC(C)OCCCCC(=O)Nc1ccc(O)cn1 [Example 37]            0
1  O=C(Nc1ccc(O)cn1)C1CCN(c2ccc(C(F)(F)F)cc2)CC1 [Example 53]            1
2  CC(c1ccc(C(=O)Nc2ccc(O)cn2)cc1)C(F)(F)F (stereo not shown) [Example 45]            0
3  COc1ccc(C(=O)Nc2ccc(O)cn2)cc1 [Example 26]            0
4  CC(C)(C)c1ccc(C(=O)Nc2ccc(O)cn2)cc1 [Example 35]            1
5  C/C(=C\C(=O)Nc1ccc(O)cc1)c1ccccc1 [Example 3]            0
6  CC(C)CCCCCC(=O)Nc1ccc(O)cn1 [Example 31]            1
7  O=C(Nc1ccc(O)cn1)[C@H]1CC[C@H](c2ccc(Cl)cc2)CC1 [Example 32]            1
8  O=C(CC1CCN(c2ccc(Cl)cc2)CC1)Nc1ccc(O)cn1 [Example 51]            1

Now turn to the next compound.
Is pIC50 at least 8? Consider O=C(Nc1ccc(O)cn1)c1ccc2ccccc2c1 [Example 7]
0

###

# Test system: insulin-stimulated Akt phosphorylation in C2C12 myotubes
# ASSAY PROCEDURE: C2C12 myotube assay of insulin-stimulated phosphorylation of Akt
# Type: cell-based
# CONDITION SUMMARY: Mus musculus, in the presence of palmitate, read-out: half-maximal effective concentration (EC50) for increasing insulin-stimulated Akt phosphorylation
QUANTITY: EC50 (nM)
Express your answer in nM, writing the number without its unit.

What the record says about CC1=C(/C=C/C(C)=C/C=C/C(C)=C/C(=O)Nc2ccc(O)cc2)C(C)(C)CCC1 [fenretinide] : EC50 is 600

###

inhibition at 10 µM values by entry
# SYSTEM: UniProtKB O15121
# ASSAY PROCEDURE: Jurkat T cell measurement of conversion of dihydroceramide to ceramide
# Format: cell-based
# CONDITION SUMMARY: 10 μM compound, Jurkat clone E6-1 cells, NBD-C6-dihydroceramide substrate; read-out: Des1 % Inhib (10 μM)
Express your answer in %, writing the number without its unit.

>>> print(df.to_string())
                                   molecule             quantity  reading_unit  measured_value
0      O=C(Nc1ccc(O)cc1)c1ccc(-c2ccccc2)cc1  inhibition at 10 µM             %              88
1  O=C(Nc1ccc(O)cc1)c1cccc2ccccc12 [Example 13, N-(4-hydroxy-phenyl)-1-napthamide]  inhibition at 10 µM             %              38
2         O=C(Nc1ccc(O)cc1)c1ccc2[nH]ncc2c1  inhibition at 10 µM             %            14.8
3  O=C(/C=C/c1ccccc1)Nc1ccc(O)cc1 [Example 4, N-(4-hydroxy-phenyl)-cinnamide]  inhibition at 10 µM             %              85

# value of inhibition at 10 µM, UniProtKB O15121, item O=C(Nc1ccc(O)cc1)c1ccc2ccccc2c1 [Example 2, N-(4-hydroxy-phenyl)-2-naphthamide] = 78

# value of inhibition at 10 µM, UniProtKB O15121, item `C/C(=C\C(=O)Nc1ccc(O)cc1)c1ccccc1` = 49

###

inhibition at 1 µM values by entry
# SYSTEM: UniProtKB O15121
# ASSAY PROCEDURE: Jurkat T cell measurement of conversion of dihydroceramide to ceramide
# Type: cell-based
# CONDITION SUMMARY: 1 μM compound, Jurkat clone E6-1 cells; read-out: Des1 % Inhib (1 μM)
Express your answer in %, writing the number without its unit.

The cases that follow already have their inhibition at 1 µM on record.
In [3]: df
Out[3]:
                                        smi            quantity  reading_unit  measured_value
0           O=C(Nc1ccc(O)cn1)c1cccc2ccccc12  inhibition at 1 µM             %              31
1      O=C(Nc1ccc(O)cn1)c1ccc(-c2ccccc2)cc1  inhibition at 1 µM             %            93.3
2   O=C(Nc1ccc(O)cn1)[C@@H]1C[C@H]1c1ccccc1  inhibition at 1 µM             %            67.2
3  N#Cc1ccc(-c2ccc(C(=O)Nc3ccc(O)cn3)cc2)cc1  inhibition at 1 µM             %            96.3

Switching to the query record.
What the record says about `O=C(Nc1ccc(O)cn1)[C@H]1CC[C@H](c2ccccc2)CC1` : inhibition at 1 µM is 96.2

###

# SYSTEM: Des1 (Homo sapiens (Human))
# ASSAY PROCEDURE: Jurkat T cell measurement of conversion of dihydroceramide to ceramide
# Assay type: cell-based
# CONDITION SUMMARY: 0.5 μM compound, Jurkat clone E6-1 cells; read-out: Des1 % Inhib (0.5 μM)
inhibition at 0.5 µM values by entry
Express your answer in %, writing the number without its unit.

The cases that follow already have their inhibition at 0.5 µM on record.
>>> df
                                   compound              quantity  reading_unit  measured_value
0  O=C(CN1CCN(c2ccc(Cl)cc2)CC1)Nc1ccc(O)cn1  inhibition at 0.5 µM             %            94.1
1    O=C(Nc1ccc(O)cn1)c1ccc(-c2ccccc2Cl)cc1  inhibition at 0.5 µM             %            95.4
2                  COCCCCCC(=O)Nc1ccc(O)cn1  inhibition at 0.5 µM             %            44.8
3       O=C(Nc1ccc(O)cn1)c1ccc(C(F)(F)F)cc1  inhibition at 0.5 µM             %              88
4              Cc1ccc(C(=O)Nc2ccc(O)cn2)cc1  inhibition at 0.5 µM             %            59.3

What the record says about `O=C(CC1CCN(c2ccc(Cl)cc2)CC1)Nc1ccc(O)cn1` : inhibition at 0.5 µM is 97.3

What the record says about `CC(C)OCCCCC(=O)Nc1ccc(O)cn1` : inhibition at 0.5 µM is 93.7
